Test system: Bacillus subtilus (ATCC 6633)
experiment: M.I.C. by broth dilution method (NCCLS 1988), gram-positive bacteria
Format: cell-based
setup-conditions: ATCC6633, in vitro broth dilution
result-type: MIC (µg/mL)

Here is how some molecules turned out for MIC.
O=C(O)c1cn(C2CC2)c2cc(N3CCN(S(=O)(=O)c4ccc(Cl)s4)CC3)c(F)cc2c1=O [JA 43]	0.25
COCC(C)N(C(=O)CC(C)=O)c1cc2c(cc1F)c(=O)c(C(=O)O)cn2C1CC1 (stereo not shown) [JA 148]	0.12
CN(CCCN)CCCNc1cc2c(cc1F)c(=O)c(C(=O)O)cn2C1CC1 [JA 102]	0.12
CCn1cc(C(=O)O)c(=O)c2cc(F)c(N3CCN(S(=O)(=O)c4ccc(OC)cc4)CC3)cc21 [JA 21]	0.25
COCC(C)N(c1cc2c(cc1F)c(=O)c(C(=O)O)cn2C1CC1)S(=O)(=O)c1ccc([N+](=O)[O-])cc1 (stereo not shown) [JA 149]	0.12

I: O=C(O)c1cn(C2CC2)c2cc(N(Cc3ccco3)C(=O)c3cccs3)c(F)cc2c1=O [JA 124]
II: CCN1CCN(c2cc3c(cc2F)c(=O)c(C(=O)O)cn3C2CC2)CC1 [Enrofloxacin, enrofloxacin, reference compound]
Between the entries labeled I and II , whose measured MIC is lower? Answer with the label corresponding to your selection.
I

a: O=C(O)c1cn(C2CC2)c2cc(N(CCc3ccccn3)CC3CCCO3)c(F)cc2c1=O (stereo not shown) [JA 146]
b: O=C(O)c1cn(C2CC2)c2cc(N(CC3CCCO3)C(=O)c3cccs3)c(F)cc2c1=O (stereo not shown) [JA 140]
Could you check which of a and b has a smaller value for MIC? Kindly give the label for the entry you pick.
b

I: O=C(O)c1cn(C2CC2)c2cc(N(CCc3ccncc3)CC3CCCO3)c(F)cc2c1=O (stereo not shown) [JA 145]
II: O=C(O)c1cn(C2CC2)c2cc(N3CCN(S(=O)(=O)Cc4ccccc4)CC3)c(F)cc2c1=O [JA 9]
Response body: label of entry with the larger MIC; valid values I , II . Lab note: record the label of whichever item you select.
II
(II: 0.25 µg/mL, I: 0.12 µg/mL)
